The measurements presented in this section are drawn from ChEMBL document CHEMBL2202994.

System: Salmonella typhimurium
Test: Genotoxicity in Salmonella typhimurium TA98 by Ames test in absence of S9 fractions
Type: toxicity, organism-based
Settings: salmonella enterica subsp. enterica serovar typhimurium
Readout Label: Activity

Consider the reported Activity for these molecules:
>  <Chemical Smiles>
O=C(Nc1nocc1Cl)N1CCN(Cc2cccc(Oc3ccc(Cl)cc3)c2)CC1

>  <Activity>
Toxic

$$$$
>  <Chemical Smiles>
O=C(Nc1ccc2nccn2c1)N1CCN(Cc2cccc(Oc3ccc(Cl)cc3)c2)CC1

>  <Activity>
Non-toxic

$$$$
>  <Chemical Smiles>
O=C(Nc1cc[nH]n1)N1CCN(Cc2cccc(Oc3ccc(Cl)cc3)c2)CC1

>  <Activity>
Non-toxic

$$$$
>  <Chemical Smiles>
O=C(Nc1noc2ccncc12)N1CCN(Cc2cccc(Oc3ccc(Cl)cc3)c2)CC1

>  <Activity>
Non-toxic

$$$$
>  <Chemical Smiles>
O=C(Nc1cnccn1)N1CCN(Cc2cccc(Oc3ccc(Cl)cc3)c2)CC1

>  <Activity>
Non-toxic

$$$$

Below is a list of molecules. For each, state its recorded Activity.
1. O=C(Nc1ccn2ccnc2c1)N1CCN(Cc2cccc(Oc3ccc(Cl)cc3)c2)CC1
2. O=C(Nc1cccc2nsnc12)N1CCN(Cc2cccc(Oc3ccc(Cl)cc3)c2)CC1
3. O=C(Nc1cnc2cccnn12)N1CCN(Cc2cccc(Oc3ccc(Cl)cc3)c2)CC1
4. O=C(Nc1cnc2ccccn12)N1CCN(Cc2cccc(Oc3ccc(Cl)cc3)c2)CC1
5. O=C(Nc1cccc2nccn12)N1CCN(Cc2cccc(Oc3ccc(Cl)cc3)c2)CC1

1: Toxic; 2: Non-toxic; 3: Non-toxic; 4: Non-toxic; 5: Non-toxic

----------
Sequence of the target: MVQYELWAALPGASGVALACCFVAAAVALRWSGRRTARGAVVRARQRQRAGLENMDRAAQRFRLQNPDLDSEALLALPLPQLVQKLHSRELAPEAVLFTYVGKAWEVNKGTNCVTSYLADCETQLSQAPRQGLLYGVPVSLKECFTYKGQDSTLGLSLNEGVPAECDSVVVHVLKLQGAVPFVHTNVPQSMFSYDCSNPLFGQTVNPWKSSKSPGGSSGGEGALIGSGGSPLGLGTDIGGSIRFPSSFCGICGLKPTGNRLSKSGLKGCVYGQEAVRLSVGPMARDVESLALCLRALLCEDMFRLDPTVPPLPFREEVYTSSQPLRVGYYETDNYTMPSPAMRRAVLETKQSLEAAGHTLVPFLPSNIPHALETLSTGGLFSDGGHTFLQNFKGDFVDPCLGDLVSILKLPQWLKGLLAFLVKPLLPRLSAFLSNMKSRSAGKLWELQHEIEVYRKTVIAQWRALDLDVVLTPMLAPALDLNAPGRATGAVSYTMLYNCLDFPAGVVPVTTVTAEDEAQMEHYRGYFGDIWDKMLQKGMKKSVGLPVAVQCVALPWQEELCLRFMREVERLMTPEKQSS
Readout Label: IC50 (nM)
One number for each entry, in nM.

>  <Chemical Smiles>
O=C(Nc1cccnc1)N1CCN(Cc2cccc(Oc3ccc(Cl)cc3)c2)CC1

>  <Display Unit>
nM

>  <IC50>
1.4

$$$$

Kindly consider the entry below.
// IC50 lookup, key: O=C(Nc1ccccc1)N1CCN(Cc2cccc(Oc3ccc(Cl)cc3)c2)CC1
6

----------
Molecular target: Fatty-acid amide hydrolase 1 (Rattus norvegicus)
Sequence (P97612 whole entry): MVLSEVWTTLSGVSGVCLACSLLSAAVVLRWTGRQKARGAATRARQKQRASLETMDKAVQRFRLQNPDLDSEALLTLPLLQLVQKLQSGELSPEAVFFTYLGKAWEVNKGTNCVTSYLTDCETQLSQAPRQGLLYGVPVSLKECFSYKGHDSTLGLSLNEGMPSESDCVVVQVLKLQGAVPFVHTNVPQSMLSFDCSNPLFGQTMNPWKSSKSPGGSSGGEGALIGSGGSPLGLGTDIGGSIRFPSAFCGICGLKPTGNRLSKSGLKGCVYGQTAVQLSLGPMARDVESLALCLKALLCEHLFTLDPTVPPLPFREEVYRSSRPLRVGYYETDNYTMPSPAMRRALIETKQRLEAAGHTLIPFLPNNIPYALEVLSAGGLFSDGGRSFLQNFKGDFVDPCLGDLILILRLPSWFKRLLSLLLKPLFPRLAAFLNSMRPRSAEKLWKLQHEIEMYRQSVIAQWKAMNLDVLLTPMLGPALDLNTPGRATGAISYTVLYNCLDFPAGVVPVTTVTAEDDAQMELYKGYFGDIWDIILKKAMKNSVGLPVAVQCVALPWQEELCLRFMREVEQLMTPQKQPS
Provide the reported IC50 of each item.
Give bare numbers, in nM.

>  <Chemical Smiles>
O=C(Nc1cccc2nsnc12)N1CCN(Cc2cccc(Oc3ccc(Cl)cc3)c2)CC1

>  <Display Unit>
nM

>  <Result Value>
25

$$$$
>  <Chemical Smiles>
O=C(Nc1ccc2nccn2c1)N1CCN(Cc2cccc(Oc3ccc(Cl)cc3)c2)CC1

>  <Display Unit>
nM

>  <Result Value>
3600

$$$$
>  <Chemical Smiles>
O=C(Nc1noc2ccccc12)N1CCN(Cc2cccc(Oc3ccc(Cl)cc3)c2)CC1

>  <Display Unit>
nM

>  <Result Value>
8.1

$$$$

Below is a list of compounds. For each, state its recorded IC50.
1. O=C(Nc1nocc1Cl)N1CCN(Cc2cccc(Oc3ccc(Cl)cc3)c2)CC1
2. O=C(Nc1noc2ccncc12)N1CCN(Cc2cccc(Oc3ccc(Cl)cc3)c2)CC1
3. O=C(Nc1cc[nH]n1)N1CCN(Cc2cccc(Oc3ccc(Cl)cc3)c2)CC1
4. O=C(Nc1cc2nccn2cn1)N1CCN(Cc2cccc(Oc3ccc(Cl)cc3)c2)CC1
5. O=C(Nc1ccn2ccnc2n1)N1CCN(Cc2cccc(Oc3ccc(Cl)cc3)c2)CC1
6. O=C(Nc1cccn2ccnc12)N1CCN(Cc2cccc(Oc3ccc(Cl)cc3)c2)CC1
7. Cc1nc2cc(NC(=O)N3CCN(Cc4cccc(Oc5ccc(Cl)cc5)c4)CC3)ccc2o1
8. O=C(Nc1cccc2cn[nH]c12)N1CCN(Cc2cccc(Oc3ccc(Cl)cc3)c2)CC1

1. 20
2. 2200
3. 150
4. 470
5. 2400
6. 3500
7. 200
8. 6000

----------
Test system: Salmonella typhimurium
Experiment: Genotoxicity in Salmonella typhimurium TA98 by Ames test in presence of S9 fractions
Assay type: toxicity, organism-based, S9 Fraction
Conditions: salmonella enterica subsp. enterica serovar typhimurium
Readout Label: Activity

Consider the reported Activity for these compounds:
>  <Chemical Smiles>
O=C(Nc1ccn2ccnc2c1)N1CCN(Cc2cccc(Oc3ccc(Cl)cc3)c2)CC1

>  <Activity>
Toxic

$$$$
>  <Chemical Smiles>
O=C(Nc1noc2ccccc12)N1CCN(Cc2cccc(Oc3ccc(Cl)cc3)c2)CC1

>  <Activity>
Non-toxic

$$$$
>  <Chemical Smiles>
O=C(Nc1nocc1Cl)N1CCN(Cc2cccc(Oc3ccc(Cl)cc3)c2)CC1

>  <Activity>
Toxic

$$$$
>  <Chemical Smiles>
O=C(Nc1cccc2nonc12)N1CCN(Cc2cccc(Oc3ccc(Cl)cc3)c2)CC1

>  <Activity>
Toxic

$$$$

Below is a list of compounds. For each, state its recorded Activity.
1. O=C(Nc1cccc2nsnc12)N1CCN(Cc2cccc(Oc3ccc(Cl)cc3)c2)CC1
2. O=C(Nc1noc2ccncc12)N1CCN(Cc2cccc(Oc3ccc(Cl)cc3)c2)CC1
3. O=C(Nc1cc2nccn2cn1)N1CCN(Cc2cccc(Oc3ccc(Cl)cc3)c2)CC1
4. O=C(Nc1noc2cccnc12)N1CCN(Cc2cccc(Oc3ccc(Cl)cc3)c2)CC1
5. O=C(Nc1cnc2cccnn12)N1CCN(Cc2cccc(Oc3ccc(Cl)cc3)c2)CC1
6. O=C(Nc1cccn2ccnc12)N1CCN(Cc2cccc(Oc3ccc(Cl)cc3)c2)CC1

1. Non-toxic
2. Non-toxic
3. Non-toxic
4. Non-toxic
5. Non-toxic
6. Non-toxic
